Exercise: state measured viability, T/C for each of the compounds provided.
# System: 227483-062-R1-J1-PDC complex spheroids with HUVEC/MSC, viability
# assayProtocol: Anticancer human tumor 227483-062-R1-J1-PDC patient-derived pancreatic carcinoma cell line growth inhibition [CLK]
# assaySetup: second compound 3.16 µM; first compound 0.00316 µM; active compounds read low
Give bare numbers, in %.

Consider the following illustrative entries.
compound	viability, T/C, %
CCN1CCN(Cc2ccc(Nc3ncc(F)c(-c4cc(F)c5nc(C)n(C(C)C)c5c4)n3)nc2)CC1 + CN1CCN(c2cc(C(=O)Nc3cc4cc(-c5cnn(C)c5)ccc4cn3)ccn2)CC1	3.72
COc1c(OCCCN2CCOCC2)ccc2c3n(c(=NC(=O)c4cnc(N)nc4)nc12)CCN3 + CNC(=O)c1ccc(Nc2nc(OC3CCCC3)c3c(-c4ccc5nc(C)oc5c4)c[nH]c3n2)c(OC)c1	50.3

Please turn your attention to the following entry.
The compound identified as CCN1CCN(Cc2ccc(Nc3ncc(F)c(-c4cc(F)c5nc(C)n(C(C)C)c5c4)n3)nc2)CC1 + CNC(=O)c1ccc(Nc2nc(OC3CCCC3)c3c(-c4ccc5nc(C)oc5c4)c[nH]c3n2)c(OC)c1 registered its viability, T/C at 65

* * *

# Test system: 227483-062-R1-J1-PDC complex spheroids with HUVEC/MSC, viability
# assayProtocol: Anticancer human tumor 227483-062-R1-J1-PDC cell line growth inhibition [CLK];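 further: spheroids exposed to compounds for seven days before readout; percent of DMSO vehicle control luminescence as 100% viability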
# assaySetup: second compound 0.0316 µM; first compound 0.1 µM; active compounds read low
Exercise: state measured viability, T/C for each of the compounds provided.
Numbers only, in %.

Batch request: viability, T/C per item, same order as input.
1. COc1ccc([C@@H](O)c2cc(-c3ncnc4cc(N5CCOCC5)ccc34)c(F)cc2Cl)nn1 + CN1CCN(c2cc(C(=O)Nc3cc4cc(-c5cnn(C)c5)ccc4cn3)ccn2)CC1
2. COc1cccc2c1C(=O)c1c(O)c3c(c(O)c1C2=O)CC(O)(C(=O)CO)CC3OC1CC(N)C(O)C(C)O1 (stereo not given) + CN1CCN(c2cc(C(=O)Nc3cc4cc(-c5cnn(C)c5)ccc4cn3)ccn2)CC1
3. CC(CO)NC(=O)c1cc(-c2ccc(Cl)cc2)nn(-c2cnn(C)c2)c1=O (stereo not given) + CNC(=O)c1ccc(Nc2nc(OC3CCCC3)c3c(-c4ccc5nc(C)oc5c4)c[nH]c3n2)c(OC)c1
4. O=c1[nH]cc(F)c(=O)[nH]1 + CNC(=O)c1ccc(Nc2nc(OC3CCCC3)c3c(-c4ccc5nc(C)oc5c4)c[nH]c3n2)c(OC)c1
5. Cn1ncnc1[C@H]1c2n[nH]c(=O)c3cc(F)cc(c23)N[C@@H]1c1ccc(F)cc1 + CNC(=O)c1ccc(Nc2nc(OC3CCCC3)c3c(-c4ccc5nc(C)oc5c4)c[nH]c3n2)c(OC)c1
6. CCc1c2c(nc3ccc(O)cc13)-c1cc3c(c(=O)n1C2)COC(=O)[C@]3(O)CC + CN1CCN(c2cc(C(=O)Nc3cc4cc(-c5cnn(C)c5)ccc4cn3)ccn2)CC1
7. CCc1c2c(nc3ccc(O)cc13)-c1cc3c(c(=O)n1C2)COC(=O)[C@]3(O)CC + CNC(=O)c1ccc(Nc2nc(OC3CCCC3)c3c(-c4ccc5nc(C)oc5c4)c[nH]c3n2)c(OC)c1
8. C#Cc1c(F)ccc2cc(O)cc(-c3ncc4c(N5CC6CCC(C5)N6)nc(OCC56CCCN5CC(F)C6)nc4c3F)c12 (stereo not given) + CN1CCN(c2cc(C(=O)Nc3cc4cc(-c5cnn(C)c5)ccc4cn3)ccn2)CC1

[107, 68, 80.3, 88.3, 97.1, 62, 60.5, 97]
